Target: T1, rat collagen, acid soluble, type I, rat tail (Upstate 08-115) (rat, UniProt P02454 152-1207; P02466 86-1125)
T1 construct: tissue extract, gelled and dried in wells; also called dried rat collagen
T1 sequence (P02454 152-1207, chain 1 of 2): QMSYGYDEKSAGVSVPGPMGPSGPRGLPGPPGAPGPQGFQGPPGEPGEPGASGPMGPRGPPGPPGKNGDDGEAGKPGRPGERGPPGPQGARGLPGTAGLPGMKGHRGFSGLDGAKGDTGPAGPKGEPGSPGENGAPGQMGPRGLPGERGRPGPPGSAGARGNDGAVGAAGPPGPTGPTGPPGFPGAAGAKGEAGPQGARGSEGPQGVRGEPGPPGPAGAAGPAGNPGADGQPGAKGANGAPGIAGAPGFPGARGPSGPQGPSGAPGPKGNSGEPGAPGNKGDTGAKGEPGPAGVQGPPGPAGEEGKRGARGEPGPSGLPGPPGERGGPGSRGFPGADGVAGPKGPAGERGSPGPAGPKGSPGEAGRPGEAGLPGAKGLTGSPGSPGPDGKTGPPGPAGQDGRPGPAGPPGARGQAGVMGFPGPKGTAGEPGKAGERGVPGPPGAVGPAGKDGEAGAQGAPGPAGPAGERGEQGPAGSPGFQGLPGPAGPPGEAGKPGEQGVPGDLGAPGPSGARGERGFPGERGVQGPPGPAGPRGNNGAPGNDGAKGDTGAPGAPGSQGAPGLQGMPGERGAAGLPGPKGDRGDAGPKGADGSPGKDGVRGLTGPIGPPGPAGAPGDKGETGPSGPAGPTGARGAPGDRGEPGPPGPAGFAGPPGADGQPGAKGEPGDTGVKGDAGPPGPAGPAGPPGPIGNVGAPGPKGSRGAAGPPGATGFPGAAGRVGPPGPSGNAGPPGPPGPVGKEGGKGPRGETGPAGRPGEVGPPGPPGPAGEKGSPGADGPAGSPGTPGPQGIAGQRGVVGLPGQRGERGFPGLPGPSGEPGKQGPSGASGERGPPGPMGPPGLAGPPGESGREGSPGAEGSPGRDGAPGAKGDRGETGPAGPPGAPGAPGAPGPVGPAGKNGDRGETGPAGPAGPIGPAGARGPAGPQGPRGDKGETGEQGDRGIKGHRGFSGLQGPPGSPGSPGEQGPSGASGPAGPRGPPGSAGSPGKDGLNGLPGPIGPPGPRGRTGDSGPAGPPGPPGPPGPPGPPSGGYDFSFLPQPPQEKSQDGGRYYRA
T1 sequence (P02466 86-1125, chain 2 of 2): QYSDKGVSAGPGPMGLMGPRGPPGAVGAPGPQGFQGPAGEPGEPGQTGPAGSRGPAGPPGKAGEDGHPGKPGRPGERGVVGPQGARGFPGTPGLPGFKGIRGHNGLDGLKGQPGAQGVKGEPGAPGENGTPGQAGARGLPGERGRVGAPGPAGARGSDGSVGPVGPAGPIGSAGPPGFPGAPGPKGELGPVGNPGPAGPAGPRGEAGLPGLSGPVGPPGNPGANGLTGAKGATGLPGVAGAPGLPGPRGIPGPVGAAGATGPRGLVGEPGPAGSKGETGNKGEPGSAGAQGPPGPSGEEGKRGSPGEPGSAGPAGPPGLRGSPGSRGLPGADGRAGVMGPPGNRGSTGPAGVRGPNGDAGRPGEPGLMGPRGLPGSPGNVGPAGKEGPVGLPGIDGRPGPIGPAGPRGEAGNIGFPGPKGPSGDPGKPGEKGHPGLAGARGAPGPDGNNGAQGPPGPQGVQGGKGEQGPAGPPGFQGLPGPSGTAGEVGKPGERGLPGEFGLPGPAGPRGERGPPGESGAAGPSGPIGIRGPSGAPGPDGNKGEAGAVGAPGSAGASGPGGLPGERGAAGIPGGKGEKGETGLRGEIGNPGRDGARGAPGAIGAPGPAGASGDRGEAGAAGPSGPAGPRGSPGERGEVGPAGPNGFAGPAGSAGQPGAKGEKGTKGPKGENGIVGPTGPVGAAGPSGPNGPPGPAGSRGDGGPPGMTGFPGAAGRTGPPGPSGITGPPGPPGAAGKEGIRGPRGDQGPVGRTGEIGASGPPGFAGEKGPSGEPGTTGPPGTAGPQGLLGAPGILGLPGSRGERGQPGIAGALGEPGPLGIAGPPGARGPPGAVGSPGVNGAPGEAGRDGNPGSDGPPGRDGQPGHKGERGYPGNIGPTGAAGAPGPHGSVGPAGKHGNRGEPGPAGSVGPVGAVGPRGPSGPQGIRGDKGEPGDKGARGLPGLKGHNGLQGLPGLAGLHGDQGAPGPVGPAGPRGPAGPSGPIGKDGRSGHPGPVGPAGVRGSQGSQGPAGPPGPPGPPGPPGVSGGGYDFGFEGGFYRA
Experiment: dried collagen assay
Bridge positions count the residues as written; N and C are the ends. Square brackets hold non-standard residues; d marks the D form. Primed or numbered codes have the meaning given here. Side chains are listed from the residue outwards. Ends that are not written are not given here. Gd^T(3) = GdDTPA attached via thiourea; 2Nal = N[C@@H](Cc1ccc2ccccc2c1)C(=O)O; hPhe = N[C@@H](CCc1ccccc1)C(=O)O; Gd^T″ = GdDTPA-thiourea; Dap = NC[C@H](N)C(=O)O
Hi there, I'd appreciate the recorded % bound for every entry that follows.
Note: state the figure and append the unit.

[Q] Form field: reported % bound of {Gd^T″}-GQ[2Nal]HCTTRFPHHYCLYG (disulfide 5-14) [Compound ID 872]
[A] 35%

[Q] Now give it for {Gd^T(3)}-GQWHCTTRFPHHYC[hPhe]YG (disulfide 5-14) [Compound ID 932] too.
[A] 79%

[Q] Now give it for {Gd^T″}-GQWHCT[dR]RFPHHYCLYG (disulfide 5-14 (inferred); not fully specified (C-terminus)) [Compound ID 900] too.
[A] 1%

[Q] Now give it for {Gd^T″}-GQWHCTTDFPH[Dap](Gd^T″)YCLYG (disulfide 5-14) [Compound ID 887] too.
[A] 16%

[Q] Now give it for {Gd^T″}-GVK([Val-Gly-Gd^T″])WHCTTYFPHHYCLYG (disulfide 6-15 (inferred); not fully specified (C-terminus)) [Compound ID 982] too.
[A] 47%

Sourced from patent US20080044360A1
